Assay: gradient 5% acetonitrile 3 min, to 50% in 2 min, to 85% in 15 min, held 3 min, 100 µL/min
Details: column: Zorbax Extend-C18 2.1 x 50 mm; eluents: water / acetonitrile, 0.1% formic acid
Catalogue of compounds with associated RP-LC retention time
PARAMETER_MEASURED: RP-LC retention time

{"COMPOUND": "O=C(CSc1nc(N2CCCCC2)nc2ccccc12)Nc1ccc(Cl)cc1", "READING": "804 s"}
{"COMPOUND": "COc1ccc(C(=O)N2CCN(c3cc(C(C)C)n4cnnc4n3)CC2)c(OC)c1", "READING": "609 s"}
{"COMPOUND": "O=C(Cc1ccc2c(c1)OCO2)Nc1nc2c(s1)Cc1ccccc1-2", "READING": "878 s"}
{"COMPOUND": "CCOC(=O)c1cccc(Nc2c(C(=O)N3CCC(C)CC3)cnc3nc(C)ccc23)c1", "READING": "666 s"}
{"COMPOUND": "Cc1nc(-c2ccccn2)cc2nn(CC(=O)NCCC(C)C)c(=O)n12", "READING": "713 s"}
{"COMPOUND": "CCCCCC(=O)N1CCCCC1", "READING": "909 s"}
{"COMPOUND": "Cc1ccc(C(=O)OCC(=O)c2ccc([N+](=O)[O-])cc2)o1", "READING": "688 s"}
{"COMPOUND": "CCCS(=O)(=O)c1nc2ccc(NS(=O)(=O)c3ccc4c(c3)CCCC4)cc2s1", "READING": "1060 s"}
{"COMPOUND": "O=C(NCCC1=CCCCC1)C1CCN(c2ncccc2S(=O)(=O)N2CCCCC2)CC1", "READING": "1080 s"}
{"COMPOUND": "COc1ccc(C(=O)Nc2cc(-c3cccnc3)no2)c(OC)c1", "READING": "802 s"}
{"COMPOUND": "CN1C(=O)[C@H]2CN(Cc3ccc(F)cc3Cl)C[C@H]2C1=O", "READING": "642 s"}
{"COMPOUND": "CCNc1cc(C)nc(N2CCN(C(=O)C(C)(C)C)CC2)n1", "READING": "632 s"}
{"COMPOUND": "CNC(=O)[C@@H]1CN(C(=O)Cc2ccc(Br)cc2)C[C@H]1CO", "READING": "604 s"}
{"COMPOUND": "N#Cc1cc2c(nc1SCC(=O)Nc1nc(-c3ccccc3)cs1)CCCC2=O", "READING": "1020 s"}
{"COMPOUND": "O=C(c1ccc(-n2cccn2)nc1)N1CCCCC1", "READING": "732 s"}
{"COMPOUND": "COc1ccc(CNC(=O)Cc2cn(C)c3ncccc23)cc1OC", "READING": "616 s"}
{"COMPOUND": "CC1(C(=O)N2CCCc3ccccc32)Cc2ccccc2C(=O)O1 (stereo not drawn)", "READING": "841 s"}
{"COMPOUND": "CCCc1cc(C2CCCN2C(=O)Nc2ccc(C)cc2)no1 (stereo not drawn)", "READING": "946 s"}
{"COMPOUND": "COC(=O)c1cc(OCC(=O)NCc2ccc3c(c2)OCO3)c2ccccc2n1", "READING": "739 s"}
{"COMPOUND": "COc1cc(CNCCSc2nnnn2C)cc(Br)c1OCc1ccccc1", "READING": "744 s"}
{"COMPOUND": "CC(C)NC(=O)Nc1cc2c(cc1N1CCOCC1)n(C)c(=O)n2C", "READING": "634 s"}
{"COMPOUND": "Cc1cc(C)cc(Oc2nccn3c(=O)n(CC(=O)NC(C)(C)C)nc23)c1", "READING": "859 s"}
{"COMPOUND": "COc1cccc(-c2nc(Cn3cnc4nc5c(cc4c3=O)CC(C)CC5)c(C)o2)c1OC (stereo not drawn)", "READING": "941 s"}
{"COMPOUND": "O=C(NC1CC1)c1cc(N2CCCC2)nc2ccc(F)cc12", "READING": "600 s"}
{"COMPOUND": "COc1ccc(N2CCN(C(=O)CN3C(=O)CN(C)C(=O)c4ccccc43)CC2)cc1", "READING": "624 s"}
{"COMPOUND": "Cc1ccc(C)c(Nc2c(-c3ccc(N(C)C)cc3)nc3ncccn23)c1", "READING": "996 s"}
{"COMPOUND": "CCn1c(=O)c(C(=O)NCCN2CCc3ccccc3C2)nc2cccnc21", "READING": "620 s"}
{"COMPOUND": "COCCOCc1nc(C2CCN(S(=O)(=O)c3c(C)noc3C)CC2)no1", "READING": "793 s"}
